Reported values of IC50 for individual entries
molecular target: human orexin-2 receptor (Homo sapiens (Human)); assay: Intracellular calcium measurement (FLIPR), CHO cells expressing human orexin-2 receptor, 3 nM orexin-A; format: cell-based; details: CHO cells expressing human orexin-2 receptor, FLIPR, 3 nM orexin-A; geometric mean if determined several times; read-out: IC50 OX2
Sequence (O43614 whole entry): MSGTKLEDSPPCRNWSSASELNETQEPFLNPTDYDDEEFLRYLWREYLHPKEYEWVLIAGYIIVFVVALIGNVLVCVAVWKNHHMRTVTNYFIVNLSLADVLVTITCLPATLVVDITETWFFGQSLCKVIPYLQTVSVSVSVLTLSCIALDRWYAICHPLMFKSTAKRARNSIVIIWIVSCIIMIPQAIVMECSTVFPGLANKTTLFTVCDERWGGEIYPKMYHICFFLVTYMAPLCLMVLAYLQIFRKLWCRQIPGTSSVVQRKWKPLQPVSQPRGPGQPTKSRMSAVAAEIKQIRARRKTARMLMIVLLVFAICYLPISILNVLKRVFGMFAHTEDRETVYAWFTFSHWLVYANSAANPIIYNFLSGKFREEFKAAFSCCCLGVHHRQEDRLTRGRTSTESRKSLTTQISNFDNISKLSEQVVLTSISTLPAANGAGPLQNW
All answers are understood in nM, so give the number only.

Example entries begin here.
> print(dat)
                  compound.structure.string  recorded.endpoint  unit.text  value
1  Cc1cc(C(=O)N2CCC[C@H]2c2nc(-c3cccc(Cl)c3C)no2)c(-n2nccn2)cc1C               IC50         nM      3
2  C[C@@]1(c2nc(-c3ccccc3)no2)CCCN1C(=O)c1ncsc1-c1cccc(Cl)c1               IC50         nM   2810
3  COc1cccc(-c2nc([C@@H]3CCCN3C(=O)c3cc(C)ccc3-n3nccn3)no2)c1C               IC50         nM     30
4  Cc1c(F)cccc1-c1nc([C@@H]2CCCN2C(=O)c2ccccc2-n2nccn2)no1               IC50         nM     17
5  Cc1ccc(-n2nccn2)c(C(=O)N2CCC[C@H]2c2nc(-c3cccc(Cl)c3)no2)c1               IC50         nM     32

Query: Looking for the measured IC50 of CCc1ccccc1-c1nnc([C@@H]2CCCN2C(=O)c2cc(C)ccc2-n2nccn2)o1 , can you help?
Response: 211

Query: Try this molecule next: Cc1ccc(-n2nccn2)c(C(=O)N2CCC[C@H]2c2nc(-c3ccccc3O)no2)c1
Response: 259

Query: Try this molecule next: COc1ccc(-n2nccn2)c(C(=O)N2CCC[C@H]2c2nc(-c3ccccc3Cl)no2)c1
Response: 147

Query: Try this molecule next: Cc1cc(-n2nccn2)c(C(=O)N2CCC[C@H]2c2nc(-c3cccc(Cl)c3C)no2)cc1Cl
Response: 10

Query: Try this molecule next: COc1ccccc1-c1noc([C@@H]2CCCN2C(=O)c2cc(F)ccc2-n2nccn2)n1
Response: 341

Query: Try this molecule next: COc1cc(C(=O)N2CCC[C@H]2c2nnc(-c3cccc(F)c3OC)[nH]2)c(-n2nccn2)cc1Cl
Response: 2

Query: Try this molecule next: Cc1ccc(-n2nccn2)c(C(=O)N2CCC[C@H]2c2nc(-c3ccnc4[nH]ccc34)no2)c1
Response: 261

Query: Try this molecule next: COc1ccc(-c2nnc([C@@H]3CCCN3C(=O)c3cc(C)ccc3-n3nccn3)o2)cc1
Response: 3440

Query: Try this molecule next: Cc1cc(-n2nccn2)c(C(=O)N2CCC[C@H]2c2noc(-c3ccccc3OC(F)(F)F)n2)cc1Cl
Response: 6

Query: Try this molecule next: Cc1ccc(-n2nccn2)c(C(=O)N2CCC[C@H]2c2nnc(-c3ccccc3C)o2)c1
Response: 105

Query: Try this molecule next: COc1c(F)cccc1-c1noc([C@@H]2CCCN2C(=O)c2cc(F)ccc2-n2nccn2)n1
Response: 32

Query: Try this molecule next: Cc1cccc(-n2nccn2)c1C(=O)N1CCC[C@H]1c1nc(-c2ccccc2OC(F)(F)F)no1
Response: 85
